target: human bradykinin 1 receptor (B1R) (Homo sapiens, UniProt P46663); construct: expressed in transfected cells; host or cells: CHO K1 cells; assay: Functional investigation on the human bradykinin 1 receptor (B1R), Ca2+ FLIPR assay in CHO K1 hB1R cells; type: cell-based; conditions: CHO-K1, B1R antagonism human; test substance 10 μM; Ca2+ FLIPR, CHO K1 hB1R cells; read-out: B1R Ant. h [10 μM] % Inhibition
Sequence (P46663 whole entry): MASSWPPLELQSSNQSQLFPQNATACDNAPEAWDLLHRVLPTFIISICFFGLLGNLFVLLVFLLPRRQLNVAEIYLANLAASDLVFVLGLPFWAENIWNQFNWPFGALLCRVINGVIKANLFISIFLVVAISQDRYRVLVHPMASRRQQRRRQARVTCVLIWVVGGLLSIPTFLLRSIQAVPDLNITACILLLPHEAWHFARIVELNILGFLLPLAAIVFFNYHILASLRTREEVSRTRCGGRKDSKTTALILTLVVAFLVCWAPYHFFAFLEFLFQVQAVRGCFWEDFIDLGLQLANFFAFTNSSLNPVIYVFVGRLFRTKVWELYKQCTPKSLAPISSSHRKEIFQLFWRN

Molecule: COc1cc(C)c(S(=O)(=O)N(C)CCOCC(=O)NCCC2CCC(C(c3cccs3)N(C)C)CC2)c(C)c1C (centres unmarked) [Example 52]
inhibition at 10 µM / %: 103
//
Molecule: CN(CCOCC(=O)NCC1CCC(C(CCc2ccccc2)N2CCOCC2)CC1)S(=O)(=O)c1c(Cl)cccc1Cl (centres unmarked) [Example 721]
inhibition at 10 µM / %: 94
//
Molecule: COc1cc(C)c(S(=O)(=O)N2CCCC(OCC(=O)NCC3CCC(C(c4cccs4)N(C)C)CC3)C2)c(C)c1C (centres unmarked) [Example 60]
inhibition at 10 µM / %: 28
//
Molecule: CN(C)C(c1cccs1)C1CCC(CCNC(=O)COCCN(C)S(=O)(=O)c2ccc(Cl)cc2)CC1 (centres unmarked) [Example 37]
inhibition at 10 µM / %: 40
//
Molecule: CN(C)C(c1cccc(F)c1)C1CCC(CNC(=O)COCCN(C)S(=O)(=O)c2c(Cl)cc(Cl)cc2Cl)CC1 (centres unmarked) [Example 188]
inhibition at 10 µM / %: 102
//
Molecule: CN(C)C(CCc1ccccc1)C1CCC(NC(=O)CNC(=O)c2nc(-c3ccc(C(C)(C)C)cc3)no2)CC1 (centres unmarked) [Example 786]
inhibition at 10 µM / %: 35
//
Molecule: CN(CCOCC(=O)NCC1CCC(C(c2ccccc2)N2CCOCC2)CC1)S(=O)(=O)c1ccc(Cl)cc1Cl (centres unmarked) [Example 705]
inhibition at 10 µM / %: 49
//
Molecule: COc1cc(C)c(S(=O)(=O)N2CCCCC2COCC(=O)NC2CCC(C(c3ccccc3)N3CCN(C)CC3)CC2)c(C)c1 (centres unmarked) [Example 735]
inhibition at 10 µM / %: 103
//
Molecule: COc1cc(C)c(S(=O)(=O)N2CCCCC2COCC(=O)NC2CCC(C(CCc3ccccc3)N3CCCCC3)CC2)c(C)c1 (centres unmarked) [Example 734]
inhibition at 10 µM / %: 104
//
Molecule: COc1cc(C)c(S(=O)(=O)N2CCC(CCOCC(=O)NC3CCC(C(c4cccs4)N(C)C)CC3)CC2)c(C)c1C (centres unmarked) [Example 5]
inhibition at 10 µM / %: 24
//
Molecule: CN(C)C(c1cccc(F)c1)C1CCC(CNC(=O)COCCN(C)S(=O)(=O)c2c(Cl)cccc2Cl)CC1 (centres unmarked) [Example 72]
inhibition at 10 µM / %: 94
//
Molecule: Cc1ccc(S(=O)(=O)N(C)CCOCC(=O)NCC2CCC(C(c3ccccc3)N(C)C)CC2)cc1 (centres unmarked) [Example 157]
inhibition at 10 µM / %: 5
//
Molecule: CN(C)C(c1cccs1)C1CCC(NC(=O)COC2CCN(S(=O)(=O)c3ccccc3)C2)CC1 (centres unmarked) [Example 194]
inhibition at 10 µM / %: -17
//
Molecule: COc1ccc(S(=O)(=O)N2CCCCC2CCOCC(=O)NC2CCC(C(c3ccccc3)N(C)C)CC2)cc1 (centres unmarked) [Example 3]
inhibition at 10 µM / %: 69
//
Molecule: COc1cc(C)c(S(=O)(=O)N2CCC(CCOCC(=O)NC3CCC(C(c4cccc(F)c4)N(C)C)CC3)CC2)c(C)c1C (centres unmarked) [Example 118]
inhibition at 10 µM / %: 23
//
Molecule: CN(C)C(c1ccccc1)C1CCC(CNC(=O)COC2CCCCC2N(C)S(=O)(=O)c2ccc(Cl)c(Cl)c2)CC1 (centres unmarked) [Example 78]
inhibition at 10 µM / %: 51
//
Molecule: COc1ccccc1-c1noc(C(=O)NCC(=O)NC2CCC(C(CCc3ccccc3)N(C)C)CC2)n1 (centres unmarked) [Example 782]
inhibition at 10 µM / %: -6

* * *

molecular target: human μ opiate receptor (Homo sapiens); construct: purchased PerkinElmer Life Sciences, Zaventem, Belgium RB-HOM; host or cells: CHO-K1 cells (membrane preparation); assay: Affinity for the human μ opiate receptor ([3H]-naloxone displacement, CHO-K1 receptor membrane preparation, SPA); assay type: binding; settings: test concentration of 1 μM
Sequence (P35372 whole entry): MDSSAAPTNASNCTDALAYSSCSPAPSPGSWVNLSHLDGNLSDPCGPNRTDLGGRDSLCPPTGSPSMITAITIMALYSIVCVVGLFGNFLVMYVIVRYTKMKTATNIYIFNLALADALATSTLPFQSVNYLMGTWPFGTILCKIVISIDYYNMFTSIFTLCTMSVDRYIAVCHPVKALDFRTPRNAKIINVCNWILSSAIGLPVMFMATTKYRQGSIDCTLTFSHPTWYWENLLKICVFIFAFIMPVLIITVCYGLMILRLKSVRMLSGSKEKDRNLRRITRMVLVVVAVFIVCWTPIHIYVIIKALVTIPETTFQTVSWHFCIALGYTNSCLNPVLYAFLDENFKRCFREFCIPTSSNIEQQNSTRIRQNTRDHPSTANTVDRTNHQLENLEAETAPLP
Measurement name: μ (binding on the μ opioid receptor, % inhibition) (%)

Compound: COc1cc(C)c(S(=O)(=O)N2CCC(OCC(=O)NCC3CCC(C(c4ccc(F)cc4)N(C)C)CC3)C2)c(C)c1 (stereo not shown) [Example 541]
Test system: human μ opiate receptor (Homo sapiens)
Value unit: %
Observed: 34
--
Compound: Cc1ccc(S(=O)(=O)N2CCC(OCC(=O)NC3CCC(C(c4ccc(F)cc4)N(C)C)CC3)C2)cc1 (stereo not shown) [Example 371]
Test system: human μ opiate receptor (Homo sapiens)
Value unit: %
Observed: 57
--
Compound: COc1cc(C)c(S(=O)(=O)N2CCC(CCOCC(=O)NCC3CCC(C(c4ccc(F)cc4)N(C)C)CC3)CC2)c(C)c1C (stereo not shown) [Example 481]
Test system: human μ opiate receptor (Homo sapiens)
Value unit: %
Observed: 38
--
Compound: CC(Oc1ccccc1)C(=O)NCCC1CCC(C(c2ccccc2)N(C)C)CC1 (stereo not shown) [Example 270]
Test system: human μ opiate receptor (Homo sapiens)
Value unit: %
Observed: 77
--
Compound: COc1ccc(S(=O)(=O)N(C)CCOCC(=O)NC2CCC(C(c3ccccc3)N(C)C)CC2)cc1OC (stereo not shown) [Example 592]
Test system: human μ opiate receptor (Homo sapiens)
Value unit: %
Observed: 83
--
Compound: CN(C)C(c1ccc(F)cc1)C1CCC(CNC(=O)COCCN(Cc2ccccc2)S(=O)(=O)c2ccccc2)CC1 (stereo not shown) [Example 342]
Test system: human μ opiate receptor (Homo sapiens)
Value unit: %
Observed: 57
--
Compound: CN(C)C(c1ccc(Cl)cc1)C1CCC(CNC(=O)COCCN(C)S(=O)(=O)c2ccc(Cl)cc2Cl)CC1 (stereo not shown) [Example 459]
Test system: human μ opiate receptor (Homo sapiens)
Value unit: %
Observed: 36
--
Compound: CC(Oc1ccccc1)C(=O)NCC1CCC(C(CCc2ccccc2)N(C)C)CC1 (stereo not shown) [Example 495]
Test system: human μ opiate receptor (Homo sapiens)
Value unit: %
Observed: 44
--
Compound: CN(C)C(c1cccc(F)c1)C1CCC(CCNC(=O)COCCN(Cc2ccccc2)S(=O)(=O)c2ccccc2)CC1 (stereo not shown) [Example 278]
Test system: human μ opiate receptor (Homo sapiens)
Value unit: %
Observed: 77
--
Compound: COc1cc(C)c(S(=O)(=O)N(C)CCOCC(=O)NCC2CCC(C(CCc3ccccc3)N(C)C)CC2)c(C)c1C (stereo not shown) [Example 453]
Test system: human μ opiate receptor (Homo sapiens)
Value unit: %
Observed: 46
--
Compound: COc1ccc(S(=O)(=O)N2CCCCC2CCOCC(=O)NCCC2CCC(C(c3cccc(F)c3)N(C)C)CC2)cc1 (stereo not shown) [Example 213]
Test system: human μ opiate receptor (Homo sapiens)
Value unit: %
Observed: 87
--
Compound: CN(C)C(CCc1ccccc1)C1CCC(CNC(=O)COC2CCN(S(=O)(=O)c3ccc(Cl)cc3)C2)CC1 (stereo not shown) [Example 557]
Test system: human μ opiate receptor (Homo sapiens)
Value unit: %
Observed: 26
--
Compound: CN(C)C(c1cccc(F)c1)C1CCC(NC(=O)COC2CCN(S(=O)(=O)c3ccc(Cl)cc3)C2)CC1 (stereo not shown) [Example 204]
Test system: human μ opiate receptor (Homo sapiens)
Value unit: %
Observed: 81
--
Compound: CN(C)C(c1ccc(F)cc1)C1CCC(CNC(=O)COCCN(C)S(=O)(=O)c2ccc(OC(F)(F)F)cc2)CC1 (stereo not shown) [Example 439]
Test system: human μ opiate receptor (Homo sapiens)
Value unit: %
Observed: 50
--
Compound: CN(C)C(CCc1ccccc1)C1CCC(CNC(=O)COC2CCN(S(=O)(=O)c3ccc(Cl)cc3Cl)C2)CC1 (stereo not shown) [Example 496]
Test system: human μ opiate receptor (Homo sapiens)
Value unit: %
Observed: 41
--
Compound: CN(C)C(c1ccccc1)C1CCC(NC(=O)COCCN(C)S(=O)(=O)c2ccccc2)CC1 (stereo not shown) [Example 588]
Test system: human μ opiate receptor (Homo sapiens)
Value unit: %
Observed: 29
--
Compound: CN(C)C(c1ccc(F)cc1)C1CCC(CCNC(=O)COC2CCN(S(=O)(=O)c3ccc(Cl)cc3Cl)C2)CC1 (stereo not shown) [Example 456]
Test system: human μ opiate receptor (Homo sapiens)
Value unit: %
Observed: 50
--
Compound: COc1cc(C)c(S(=O)(=O)N2CCC(OCC(=O)NCC3CCC(C(CCc4ccccc4)N(C)C)CC3)C2)c(C)c1 (stereo not shown) [Example 565]
Test system: human μ opiate receptor (Homo sapiens)
Value unit: %
Observed: 20
--
Compound: CN(C)C(CCc1ccccc1)C1CCC(CNC(=O)COC2CCN(S(=O)(=O)c3ccccc3)CC2)CC1 (stereo not shown) [Example 578]
Test system: human μ opiate receptor (Homo sapiens)
Value unit: %
Observed: 12
--
Compound: COc1ccc(S(=O)(=O)N2CCCCC2CCOCC(=O)NCCC2CCC(C(c3ccc(F)cc3)N(C)C)CC2)cc1 (stereo not shown) [Example 398]
Test system: human μ opiate receptor (Homo sapiens)
Value unit: %
Observed: 59
--
Compound: COc1ccc(S(=O)(=O)N2CCC(OCC(=O)NCCC3CCC(C(c4ccc(F)cc4)N(C)C)CC3)C2)cc1OC (stereo not shown) [Example 430]
Test system: human μ opiate receptor (Homo sapiens)
Value unit: %
Observed: 56
--
Compound: COc1ccc(S(=O)(=O)N2CCCCC2COCC(=O)NC2CCC(C(c3cccc(F)c3)N(C)C)CC2)cc1 (stereo not shown) [Example 255]
Test system: human μ opiate receptor (Homo sapiens)
Value unit: %
Observed: 72
--
Compound: CN(C)C(c1ccc(Cl)cc1)C1CCC(CCNC(=O)COCCN(C)S(=O)(=O)c2c(Cl)cccc2Cl)CC1 (stereo not shown) [Example 274]
Test system: human μ opiate receptor (Homo sapiens)
Value unit: %
Observed: 68
--
Compound: COc1cc(C)c(S(=O)(=O)N(C)CCOCC(=O)NCC2CCC(C(c3ccc(Cl)cc3)N(C)C)CC2)c(C)c1C (stereo not shown) [Example 298]
Test system: human μ opiate receptor (Homo sapiens)
Value unit: %
Observed: 64
--
Compound: CN(C)C(c1ccc(Cl)cc1)C1CCC(CNC(=O)COCCN(C)S(=O)(=O)c2cccc(C(F)(F)F)c2)CC1 (stereo not shown) [Example 314]
Test system: human μ opiate receptor (Homo sapiens)
Value unit: %
Observed: 64
--
Compound: CN(C)C(c1ccc(Cl)cc1)C1CCC(CNC(=O)COC2CCN(S(=O)(=O)c3cccc(C(F)(F)F)c3)C2)CC1 (stereo not shown) [Example 331]
Test system: human μ opiate receptor (Homo sapiens)
Value unit: %
Observed: 61
--
Compound: Cc1cc(C)c(S(=O)(=O)N2CCC(OCC(=O)NCC3CCC(C(CCc4ccccc4)N(C)C)CC3)C2)c(C)c1 (stereo not shown) [Example 475]
Test system: human μ opiate receptor (Homo sapiens)
Value unit: %
Observed: 48
--
Compound: CN(C)C(c1ccc(F)cc1)C1CCC(CCNC(=O)COC2CCN(S(=O)(=O)c3ccccc3)CC2)CC1 (stereo not shown) [Example 553]
Test system: human μ opiate receptor (Homo sapiens)
Value unit: %
Observed: 26
